- Tested on: K562
- PROTOCOL: NCI tumour cell line growth inhibition, 48 h
Activity calls are given as the source filed them. No stated cut-off is given here; in the data, active = GI50 up to about 1.1 µM and inactive = higher.
The reply should be one of these categories: yes (1) for active, no (0) for inactive

CC(=O)Nc1ccc(NS(=O)(=O)c2ccc3nc(C)n(NS(=O)(=O)c4ccc(NC(C)=O)cc4)c(=O)c3c2)cc1 :: no (0)
Cc1ccccc1-n1c2nc(=O)n(C)c(=O)c-2nc2ccccc21 :: no (0)
COc1ccc2c(c1)C(=O)CC(C(N)=O)C2 (centres undefined) :: no (0)
CC(=O)OC[C@]12CCC3[C@@]4(C)CCCC(C)(C)C4CC[C@@]3(C)C1CC(C1=CC(=O)OC1O)O2 (some centres undefined) :: yes (1)
COc1ccccc1CC(C)N (centres undefined) :: no (0)

Called result for O=S(=O)(O)c1cc(O)c(/N=N/c2ccc3ccccc3c2O)c2ccccc12 [ERIOCHROME BLUE BLACK B]
no (0)

Thanks! And C1CCNCC1.Oc1ncnc2[nH]cc(CN3CCCCC3)c12 ?
no (0)

// query: O=S1(=O)N=C(SCc2c[nH]c3ccccc23)N(c2ccccc2)c2ccncc21
no (0)

Entry to check: Cc1cc(O)nc(NN2C(Cl)C(=O)C2c2ccc(Cl)cc2)n1 (centres undefined)
no (0)
